Origin of measurements: patent US20200138764A1

# key: entry, value: Relative Expression of mRNA in Adipocytes: CPT1A
Test system: adipocytes
run.description: Real Time PCR analysis of adipocytes, in vitro
Format: cell-based, human
cond: Real Time PCR, relative to untreated control = 1
Excerpt: For Real Time PCR analysis of adipocytes, cells from cultures grown in 24 well plates were collected. RNA was isolated using RNeasy Kit (Cat 74104, Qiagen, Germantown, Md.) using manufacturer's protocol. […]
metric: Relative Expression of mRNA in Adipocytes: CPT1A

>>> meas_value("CC1CCC(C(C)C)C(O)C1 (stereo not shown) [Menthol]")
1.35
>>> meas_value("CC(C)[C@@H]1CC[C@@H](C)C[C@H]1C(=O)NC[C@@H](NC(=O)[C@H](C)N)c1ccccc1 [Formula III]")
1.7
>>> meas_value("CCOC(=O)CNC(=O)[C@@H]1C[C@H](C)CC[C@H]1C(C)C [WS-5]")
1.5
>>> meas_value("CC(C)[C@@H]1CC[C@@H](C)C[C@H]1C(=O)NC[C@@H](NC(=O)[C@@H](C)N)c1ccccc1 [Formula IV]")
1.7

====

assayed.system: human TRPM8
run.description: TRPM8 Protocol-FLIPR Assay (intracellular Ca2+)
cond: HEK-293 cells stably transfected with human TRPM8, Fluo-4 AM, relative to benchmark agonist WS-5
Description: To determine whether TRPM8 is activated, the intracellular calcium ion (Ca^2+) level was measured from transfected cells with the TRPM8 receptor sequence (SEQ ID NO: 1). […] Fluo-4 AM is a fluorescent dye used for quantifying cellular Ca^2+ concentrations in the 100 nM to 1 μM range. […] The magnitude of the fluorescence of the active-treated cells was compared to the magnitude of the fluorescence from a benchmark agonist (WS-5), as described above. […]
# key: entry, value: IC50
metric: IC50

>>> meas_value("CC(C)[C@@H]1CC[C@@H](C)C[C@H]1C(=O)NC[C@@H](NC(=O)[C@H](C)N)c1ccccc1 [Formula III]")
"2 nM"
>>> meas_value("CCOC(=O)CNC(=O)[C@@H]1C[C@H](C)CC[C@H]1C(C)C [WS-5]")
"2000 nM"
>>> meas_value("CC1CCC(C(C)C)C(O)C1 (stereo not drawn) [Menthol]")
"7000 nM"
>>> meas_value("CC(C)[C@@H]1CC[C@@H](C)C[C@H]1C(=O)OC[C@@H](NC(=O)[C@@H](C)N)c1ccccc1 [Formula VI]")
"8 nM"
>>> meas_value("CC(C)[C@@H]1CC[C@@H](C)C[C@H]1C(=O)NCC(NC(=O)[C@H](C)N)c1ccccc1 (stereo partly drawn) [Comparative Example 2]")
"10 to 12 nM"
>>> meas_value("CC(C)[C@@H]1CC[C@@H](C)C[C@H]1C(=O)OC[C@@H](NC(=O)[C@H](C)N)c1ccccc1 [Formula V]")
"340 nM"
